# measurement.target: His-PKC-theta (Homo sapiens)
# Construct: His; purchased Invitrogen
# Sequence (Q04759 whole entry): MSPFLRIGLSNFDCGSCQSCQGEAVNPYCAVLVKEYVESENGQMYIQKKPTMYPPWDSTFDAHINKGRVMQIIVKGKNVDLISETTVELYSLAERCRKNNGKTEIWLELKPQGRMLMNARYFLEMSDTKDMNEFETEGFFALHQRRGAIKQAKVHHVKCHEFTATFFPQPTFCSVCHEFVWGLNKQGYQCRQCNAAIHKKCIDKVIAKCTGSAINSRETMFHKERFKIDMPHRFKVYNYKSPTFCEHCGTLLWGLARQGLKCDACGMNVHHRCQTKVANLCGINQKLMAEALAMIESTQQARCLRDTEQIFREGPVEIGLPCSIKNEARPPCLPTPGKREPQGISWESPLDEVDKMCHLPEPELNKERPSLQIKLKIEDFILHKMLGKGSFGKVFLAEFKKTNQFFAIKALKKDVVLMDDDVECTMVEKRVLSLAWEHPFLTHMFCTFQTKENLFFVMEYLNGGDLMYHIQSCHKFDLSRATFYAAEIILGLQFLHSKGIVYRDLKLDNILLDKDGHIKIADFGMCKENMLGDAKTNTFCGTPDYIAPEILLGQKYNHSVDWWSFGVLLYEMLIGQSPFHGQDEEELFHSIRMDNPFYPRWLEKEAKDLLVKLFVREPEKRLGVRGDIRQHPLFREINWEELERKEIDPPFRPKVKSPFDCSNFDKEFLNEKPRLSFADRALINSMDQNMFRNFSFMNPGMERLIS
# procedure.summary: PKC-theta Assay (384-well time resolved fluorescence, IMAP TR-FRET)
# Assay type: biochemical
# condition.parameters: Table 2; read-out: Act. Level (IC50 in the PKC-theta Assay)
# Protocol: PKC-theta Assay. A 384-well time resolved fluorescence assay was used to monitor PKC-theta activity. The PKC-theta assay was run in the following assay buffer: 50 mM HEPES pH 7.6, 10 mM MgCl2, 1 mM DTT, 0.01% Triton X-100, 0.01% BSA and 0.1 mM EDTA. […] The assay plates were then incubated overnight at room temperature and read on a Perkin-Elmer Envision Reader.
pIC50: −log10 of the molar value.
measurement.name: pIC50

• CC1(C)C[C@H](Nc2nc(NCCc3ccc(C#N)cc3)ncc2C(F)(F)F)CC[C@@H]1O [Cmpd 161] = 6.10 to 7.00
• COc1ccc(CCNc2ncc(C#N)c(N[C@@H]3C[C@H](O)C3(C)C)n2)cc1 [Cmpd 103] = 6.10 to 7.00
• CN(C)S(=O)(=O)c1ccc(CCNc2ncc(C#N)c(N[C@@H]3CC[C@H](O)C(C)(C)C3)n2)cc1 [Cmpd 175] = 6.10 to 7.00

Short answer please: pIC50, His-PKC-theta (Homo sapiens), entry CC1(C)[C@@H](O)C[C@H]1Nc1nc(NCCc2ccc(F)cc2)ncc1C#N [Cmpd 102] 6.10 to 7.00

Here is the next compound: N#Cc1cnc(NCc2ccccc2-c2ccccc2)nc1N[C@H]1CC[C@@H](O)CC1 [Cmpd 10] 6.10 to 7.00

Here is the next compound: Cc1ncc(-c2ccc(CCNc3ncc(C#N)c(N[C@@H]4C[C@H](O)C4(C)C)n3)cc2)s1 [Cmpd 124] 6.10 to 7.00

Here is the next compound: CC1(C)[C@@H](CO)C[C@H]1Nc1nc(NCCc2cccc(Cl)c2)ncc1C#N [Cmpd 74] > 7.00

Here is the next compound: CC1(C)C[C@H](Nc2nc(NCCc3cc(C(F)(F)F)cc(C(F)(F)F)c3)ncc2C#N)CC[C@@H]1O [Cmpd 54] 5.70 to 6.10

Here is the next compound: CC1(C)C[C@H](Nc2nc(NCCc3ccc(C#N)cc3)ncc2C#N)CC[C@@H]1O [Cmpd 37] 6.10 to 7.00

Here is the next compound: CC1(C)C[C@H](Nc2nc(NCCc3cc(F)cc(Cl)c3)ncc2C#N)CC[C@@H]1O [Cmpd 184] > 7.00

Where do the numbers come from? From patent US9783505B2.
